Task for the reader: assign each of the following compounds its reported EC50.
Molecular target: LXRα (Homo sapiens, UniProt Q13133)
Construct: Co-transfection expression plasmids, comprising full-length LXRα (pCMX-h LXRα)
Sequence (Q13133 whole entry): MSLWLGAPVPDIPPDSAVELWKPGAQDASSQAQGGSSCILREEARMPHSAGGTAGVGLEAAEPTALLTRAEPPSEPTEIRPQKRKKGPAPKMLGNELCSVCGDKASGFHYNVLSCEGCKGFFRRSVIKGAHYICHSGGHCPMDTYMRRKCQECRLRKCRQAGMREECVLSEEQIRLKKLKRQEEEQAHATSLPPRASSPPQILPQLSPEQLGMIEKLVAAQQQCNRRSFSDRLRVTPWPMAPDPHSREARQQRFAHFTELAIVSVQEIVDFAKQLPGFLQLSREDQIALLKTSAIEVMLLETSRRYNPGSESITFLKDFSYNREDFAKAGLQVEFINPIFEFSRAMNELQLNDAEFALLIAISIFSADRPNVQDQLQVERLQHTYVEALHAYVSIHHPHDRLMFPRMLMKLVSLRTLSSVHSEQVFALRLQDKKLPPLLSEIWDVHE
Sequence (P19793 whole entry partner): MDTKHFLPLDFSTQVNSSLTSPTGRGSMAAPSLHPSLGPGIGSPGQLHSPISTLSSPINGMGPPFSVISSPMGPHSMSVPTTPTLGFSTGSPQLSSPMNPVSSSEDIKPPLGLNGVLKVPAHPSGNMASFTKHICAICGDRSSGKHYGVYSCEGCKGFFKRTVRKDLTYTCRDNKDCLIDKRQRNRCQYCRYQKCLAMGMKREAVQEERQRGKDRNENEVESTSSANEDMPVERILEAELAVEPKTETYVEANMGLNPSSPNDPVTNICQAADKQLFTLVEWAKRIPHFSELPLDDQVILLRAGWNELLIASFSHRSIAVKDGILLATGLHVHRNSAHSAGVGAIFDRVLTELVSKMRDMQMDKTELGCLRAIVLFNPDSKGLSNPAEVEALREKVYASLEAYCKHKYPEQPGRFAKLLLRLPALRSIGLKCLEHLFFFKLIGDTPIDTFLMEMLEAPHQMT
Assay: LXR/LXRE co-transfection assay (LXRα)
Conditions: CV-1 cells, LXRE luciferase reporter
Method: To measure the ability of compounds to activate or inhibit the transcriptional activity of LXR in a cell based assay, the co-transfection assay was used. It has been shown that LXR functions as a heterodimer with RXR. […] Treatment of transfected cells with an LXR agonist increases the transcriptional activity of LXR, which is measured by an increase in luciferase activity. […]

{"Compound": "CC(C)(O)c1cn(-c2ccc(-c3cc(F)c(CO)c(S(C)(=O)=O)c3)cc2)c(Cc2ccc(Cl)cc2Cl)n1", "System tested": "LXRα (Homo sapiens, UniProt Q13133)", "EC50": "< 0.1 µM"}
{"Compound": "Cc1cc(-c2cc(F)c(CO)c(S(C)(=O)=O)c2)ccc1-n1cc(C(C)(C)O)nc1C(C)(C)c1c(F)cccc1Cl", "System tested": "LXRα (Homo sapiens, UniProt Q13133)", "EC50": "< 0.1 µM"}

We now examine a further compound.
According to the records, this compound CC(C)(O)c1cn(-c2ccc(-c3cccc(S(C)(=O)=O)c3)cc2)c(C(C)(C)c2ccccc2Cl)n1 [Compound No. 19, Table 1, WO 2007/002563, reference compound] displays EC50 of 0.101 to 1 µM

====

I'd be grateful if you could share measured pEC50 for these entries.
test system: ABCG1 mRNA in blood cells; assay: In vivo potency and maximum ABCG1 induction in cynomolgus monkey; settings: Macaca fascicularis, po, 5 h
One number for each entry, as −log10 of the molar value.

{"Molecule": "CC(C)(O)c1cn(-c2ccc(-c3cc(F)c(CO)c(S(C)(=O)=O)c3)cc2F)c(C(C)(C)c2c(Cl)cccc2Cl)n1", "Observed measurement": 7.96}
{"Molecule": "CC(C)(O)c1cn(-c2ccc(-c3cccc(S(C)(=O)=O)c3)cc2)c(C(C)(C)c2ccccc2Cl)n1 [Compound No. 19, Table 1, WO 2007/002563, reference compound]", "Observed measurement": 6.20}

Okay, now this molecule:
pEC50 recorded for this molecule, CC(C)(O)c1cn(-c2ccc(-c3cc(F)c(CO)c(S(C)(=O)=O)c3)cc2)c(C(C)(C)c2cccc(F)c2Cl)n1 , is 6.85
